# system_tested: DAT (Rattus norvegicus)
# Sequence (P23977 whole entry): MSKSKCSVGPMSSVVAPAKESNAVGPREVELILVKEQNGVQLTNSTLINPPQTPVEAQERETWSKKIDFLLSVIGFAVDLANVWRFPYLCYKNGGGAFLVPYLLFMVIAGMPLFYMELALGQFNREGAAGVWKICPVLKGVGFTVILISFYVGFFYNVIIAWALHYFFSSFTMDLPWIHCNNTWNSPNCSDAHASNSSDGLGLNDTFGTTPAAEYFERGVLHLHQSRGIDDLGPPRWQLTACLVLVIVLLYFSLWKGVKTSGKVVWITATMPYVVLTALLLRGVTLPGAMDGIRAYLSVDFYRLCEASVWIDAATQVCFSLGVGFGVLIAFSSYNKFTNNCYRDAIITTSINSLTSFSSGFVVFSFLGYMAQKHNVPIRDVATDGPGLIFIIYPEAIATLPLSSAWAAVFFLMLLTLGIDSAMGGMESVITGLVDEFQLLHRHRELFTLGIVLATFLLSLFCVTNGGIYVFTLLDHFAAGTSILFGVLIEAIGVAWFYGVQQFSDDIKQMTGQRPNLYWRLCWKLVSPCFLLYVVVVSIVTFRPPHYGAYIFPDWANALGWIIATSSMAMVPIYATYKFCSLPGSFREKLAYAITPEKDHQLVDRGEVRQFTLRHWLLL
# assay_comment: DAT-mediated [3H]DA release assay in rat brain synaptosomes
# stated_conditions: read-out: DA release EC50; bound stated
readout_name: EC50

• CNC(C)C(=O)c1ccc(C(F)(F)F)cc1 (stereo not shown) = > 4 µM

---

# system_tested: DAT (Rattus norvegicus)
# assay_comment: DAT-mediated [3H]DA release assay in rat brain synaptosomes
# Format: biochemical
# stated_conditions: relative to methcathinone 1
# reported fold less potent at DA release (DAT) compared to 1; entries follow
readout_name: fold less potent at DA release (DAT) compared to 1 (fold)

* CNC(C)C(=O)c1cccc(C(F)(F)F)c1 (stereo not drawn) | 26
* Cl.NCC(=O)c1ccccc1 [Compound 6, phenacylamine, reference compound] | 4.2
* CNC(C)C(=O)c1ccc(F)cc1 (stereo not drawn) | 2.4
* CNC(C)C(=O)c1ccc(C)c(Cl)c1 (stereo not drawn) | 2.5
* CNC(C)C(=O)c1ccccc1C (stereo not drawn) | 2
